# assay_notes: Selectivity index, ratio of IC50 for african green monkey (Cercopithecus aethiops) Vero cells to IC50 for Plasmodium falciparum W2
# reported_conditions: Vero cells
property_name: selectivity ratio

Q. Given the entry CC[C@H]1OC(=O)[C@H](C)C(=O)[C@H](C)[C@@H](O[C@@H]2O[C@H](C)C[C@H](N(C)Cc3ccc(-c4cn(CCCCCCCCC(=O)NO)nn4)cc3)[C@H]2O)[C@](C)(OC)C[C@@H](C)C2=NCCN3C(=O)O[C@@]1(C)[C@H]3[C@H]2C , report its measured selectivity ratio.
A. > 3.5

====

For each of the compounds below, state its IC50.
# tested_target: Histone deacetylase
# assay_notes: Inhibition of HDAC in human HeLa cell nuclear extracts
# Assay type: protein assay

Q. Given the entry CC[C@H]1OC(=O)[C@H](C)C(=O)[C@H](C)[C@@H](O[C@@H]2O[C@H](C)C[C@H](N(C)Cc3ccc(-c4cn(CCCCCC(=O)NO)nn4)cc3)[C@H]2O)[C@](C)(OC)C[C@@H](C)C2=NCCN3C(=O)O[C@@]1(C)[C@H]3[C@H]2C , report its measured IC50.
A. 7.77 nM

Q. Would you kindly repeat that for CC[C@H]1OC(=O)[C@H](C)C(=O)[C@H](C)[C@@H](O[C@@H]2O[C@H](C)C[C@H](N(C)Cc3ccc(-c4cn(CCCCCCCCCC(=O)NO)nn4)cc3)[C@H]2O)[C@](C)(OC)C[C@@H](C)C2=NCCN3C(=O)O[C@@]1(C)[C@H]3[C@H]2C ?
A. 208.2 nM

Q. Would you kindly repeat that for CC[C@H]1OC(=O)[C@H](C)C(=O)[C@H](C)[C@@H](O[C@@H]2O[C@H](C)C[C@H](N(C)Cc3ccc(-c4cn(CCCCCCCCC(=O)NO)nn4)cc3)[C@H]2O)[C@](C)(OC)C[C@@H](C)C2=NCCN3C(=O)O[C@@]1(C)[C@H]3[C@H]2C ?
A. 163.6 nM

Q. Would you kindly repeat that for CC[C@H]1OC(=O)[C@H](C)C(=O)[C@H](C)[C@@H](O[C@@H]2O[C@H](C)C[C@H](N(C)Cc3ccc(-c4cn(CCCCCCCC(=O)NO)nn4)cc3)[C@H]2O)[C@](C)(OC)C[C@@H](C)C2=NCCN3C(=O)O[C@@]1(C)[C@H]3[C@H]2C ?
A. 104.2 nM

Q. Would you kindly repeat that for CC[C@H]1OC(=O)[C@H](C)C(=O)[C@H](C)[C@@H](O[C@@H]2O[C@H](C)C[C@H](N(C)Cc3ccc(-c4cn(CCCCCCC(=O)NO)nn4)cc3)[C@H]2O)[C@](C)(OC)C[C@@H](C)C2=NCCN3C(=O)O[C@@]1(C)[C@H]3[C@H]2C ?
A. 1.03 nM

====

# assay_notes: Selectivity index, ratio of IC50 for african green monkey (Cercopithecus aethiops) Vero cells to IC50 for Plasmodium falciparum D6
# reported_conditions: vero
property_name: selectivity ratio

Q. Given the entry CC[C@H]1OC(=O)[C@H](C)C(=O)[C@H](C)[C@@H](O[C@@H]2O[C@H](C)C[C@H](N(C)Cc3ccc(-c4cn(CCCCCCC(=O)NO)nn4)cc3)[C@H]2O)[C@](C)(OC)C[C@@H](C)C2=NCCN3C(=O)O[C@@]1(C)[C@H]3[C@H]2C , report its measured selectivity ratio.
A. > 35

Q. Would you kindly repeat that for CC[C@H]1OC(=O)[C@H](C)C(=O)[C@H](C)[C@@H](O[C@@H]2O[C@H](C)C[C@H](N(C)Cc3ccc(-c4cn(CCCCCC(=O)NO)nn4)cc3)[C@H]2O)[C@](C)(OC)C[C@@H](C)C2=NCCN3C(=O)O[C@@]1(C)[C@H]3[C@H]2C ?
A. > 5.3

Q. Would you kindly repeat that for CC[C@H]1OC(=O)[C@H](C)C(=O)[C@H](C)[C@@H](O[C@@H]2O[C@H](C)C[C@H](N(C)Cc3ccc(-c4cn(CCCCCCCCCC(=O)NO)nn4)cc3)[C@H]2O)[C@](C)(OC)C[C@@H](C)C2=NCCN3C(=O)O[C@@]1(C)[C@H]3[C@H]2C ?
A. > 4

Q. Would you kindly repeat that for CC[C@H]1OC(=O)[C@H](C)C(=O)[C@H](C)[C@@H](O[C@@H]2O[C@H](C)C[C@H](N(C)Cc3ccc(-c4cn(CCCCCCCC(=O)NO)nn4)cc3)[C@H]2O)[C@](C)(OC)C[C@@H](C)C2=NCCN3C(=O)O[C@@]1(C)[C@H]3[C@H]2C ?
A. > 3.6

Origin of measurements: ChEMBL document CHEMBL1212894
